Data origin, for the record: patent US7749969B2

# subject.of.test: CYP 3A4 (Homo sapiens, UniProt P08684)
# Sequence (P08684 whole entry): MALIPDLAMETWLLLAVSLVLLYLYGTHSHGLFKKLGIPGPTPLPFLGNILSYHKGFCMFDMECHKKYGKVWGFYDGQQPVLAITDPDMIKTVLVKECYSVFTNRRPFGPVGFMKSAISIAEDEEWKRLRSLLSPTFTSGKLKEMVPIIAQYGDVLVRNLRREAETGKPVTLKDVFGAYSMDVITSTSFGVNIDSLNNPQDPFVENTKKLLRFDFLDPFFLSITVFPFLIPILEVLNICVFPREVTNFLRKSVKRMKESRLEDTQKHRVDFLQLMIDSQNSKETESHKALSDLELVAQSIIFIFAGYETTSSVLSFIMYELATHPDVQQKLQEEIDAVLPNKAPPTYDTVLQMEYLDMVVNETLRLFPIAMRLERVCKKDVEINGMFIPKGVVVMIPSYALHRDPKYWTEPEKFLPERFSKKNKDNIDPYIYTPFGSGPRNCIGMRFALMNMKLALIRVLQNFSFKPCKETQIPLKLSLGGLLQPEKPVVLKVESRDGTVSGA
# test.description: Cytochrome P450 oxidase (CYP) inhibition, fluorescent probe
# Format: in vitro ADME
# stated.conditions: recombinant human CYP isozyme 3A4
Square brackets hold non-standard residues; d marks the D form. Peptide text beside a SMILES is read from it. * marks the point of attachment. Bz = O=C(c1ccccc1)*
property: CYP450 Inhibition at 3 μM (% Inhibition) CYP 3A4

>  <molecule>
N[C@H](CCCCNC(=O)c1ccccc1)C(=O)NCC(=O)O [WO2004/048400 23, H-DLys(benzoyl)-G-OH, reference compound] (H-[dK](Bz)-Gly-OH)

>  <experimental.value>
15–25 % Inhibition

$$$$
>  <molecule>
CN(CC(=O)O)C(=O)[C@@H](N)CCCCNC(=O)c1ccc([N+](=O)[O-])cc1 [WO2004/048400 8, H-K(4-nitrobenzoyl)-Sar-OH, reference compound]

>  <experimental.value>
15–25 % Inhibition

$$$$
>  <molecule>
NC(=O)C[C@H](NC(=O)CS)C(=O)N[C@@H](Cc1ccc(O)cc1)C(N)=O [Compound 7, N-(thiohydroxyacteyl)-Asn-Tyr-NH2]

>  <experimental.value>
<15 % Inhibition

$$$$
>  <molecule>
N[C@@H](CCCCNC(=O)c1ccc([N+](=O)[O-])cc1)C(=O)NCC(=O)O [WO2004/048400 7, H-K(4-nitrobenzoyl)-G-OH, reference compound]

>  <experimental.value>
15–25 % Inhibition

$$$$
>  <molecule>
NCC(=O)N[C@@H](CC(N)=O)C(=O)NCc1ccc2ccc3cccc4ccc1c2c34

>  <experimental.value>
<15 % Inhibition

$$$$

For each of the molecules below, state CYP450 Inhibition at 3 μM (% Inhibition) CYP 3A4.
1. COCC(=O)N[C@@H](CC(N)=O)C(=O)N[C@@H](Cc1ccc(O)cc1)C(N)=O
2. CC(=O)OCC(=O)N[C@@H](CC(N)=O)C(=O)N[C@@H](Cc1ccc(O)cc1)C(N)=O
3. COc1ccc(CNC(=O)C[C@H](N)C(=O)N[C@H](C)C(=O)O)cc1 [WO2004/048400 80, H-Asn(4-methoxybenzyl)-DAla-OH, reference compound]

Result:
<15 % Inhibition
<15 % Inhibition
15–25 % Inhibition
